Assay: MTS cytotoxicity assay (CellTiter 96)
Settings: human
Measured Endpoint: CC50 at 72 h (µM)
One number for each entry, in µM.

Hi, could you look up CC50 at 72 h for each item in my list?
1. C/C(=N\c1ccccc1NO)c1c(C)cc(=O)n(O)c1O
2. COc1ccc2c(c1)C(=O)N(O)C(=O)C2C(=O)NCc1ccc(F)cc1 (stereo not shown)
3. O=C(NCc1ccc(F)cc1)C1C(=O)N(O)C(=O)c2cc(Cl)ccc21 (stereo not shown)
4. O=C(Nc1ccc2c(c1)C(=O)N(O)C(=O)C2C(=O)NCc1ccc(F)cc1)c1ccccc1 (stereo not shown)

15
40
37
99

====

Test: MTT cytotoxicity assay
Type: cell-based
Settings: human; Table 2, HepDES19 cells
Exercise: for every item that follows, state its recorded CC50.

Molecule	CC50
O=C(Nc1ccc2c(c1)C(=O)N(O)C(=O)C2C(=O)NCc1ccc(F)cc1)c1ccccc1 (stereo not shown) [Compound 86]	> 100 µM
O=C(NCc1ccc(F)cc1)C1C(=O)N(O)C(=O)c2cc(Cl)ccc21 (stereo not shown) [Compound 87]	37 µM
COc1ccc2c(c1)C(=O)N(O)C(=O)C2C(=O)NCc1ccc(F)cc1 (stereo not shown) [Compound 88]	40 µM

With those in mind, consider the next molecule.
Record request: CC50 value, item CCN(CC)C(=O)C1C(=O)N(O)C(=O)c2ccccc21 (stereo not shown) [Compound 83] > 100 µM

====

Please go through the items and note down their CC50 at 72 h.
Assay: Lactate dehydrogenase (LDH) release cytotoxicity assay
Format: cell-based
Details: human, HepDES19 cells, read-out: Toxicity in HepDES19, LDH (CC50)
Answers are plain numbers, in µM.

These solved cases illustrate the format of a correct answer.
Molecule	Measured Endpoint	Measured Number
O=C(NCc1ccc(F)cc1)C1C(=O)N(O)C(=O)c2cc(Cl)ccc21 (stereo not shown) [Compound 87]	CC50 at 72 h	52
C/C(=N\c1ccccc1NO)c1c(C)cc(=O)n(O)c1O [Compound 208]	CC50 at 72 h	12

Next molecule, CC50 at 72 h to be filled in.
What value of measured CC50 at 72 h is listed for COc1ccc2c(c1)C(=O)N(O)C(=O)C2C(=O)NCc1ccc(F)cc1 (stereo not shown) [Compound 88] ? 57
